Cited source for all entries: ChEMBL document CHEMBL1126605

target: Tubulin (Bos taurus, UniProt Q6B856+Q862L2+Q862F3); assay: Inhibition of tubulin polymerization with preincubation for 15 minutes at 37 degree Centigrade prior to addition of the GTP required for polymerization; format: functional
Listed next: entries and their corresponding IC50.

{"columns": ["smi", "tested_target", "relation_symbol", "IC50, µM"],
 "data": [
  ["CCC(=O)OC[C@H]1Cc2cc(OC)c(OC)c(OC)c2-c2ccc(SC)c(=O)cc21", "Tubulin (Bos taurus, UniProt Q6B856+Q862L2+Q862F3)", "=", 3.4],
  ["COc1ccc(C(=O)OC[C@H]2Cc3cc(OC)c(OC)c(OC)c3-c3ccc(SC)c(=O)cc32)cc1", "Tubulin (Bos taurus, UniProt Q6B856+Q862L2+Q862F3)", ">", 40],
  ["COc1cc2c(c(OC)c1OC)-c1ccc(SC)c(=O)cc1[C@@H](COC(=O)c1ccc(F)cc1)C2", "Tubulin (Bos taurus, UniProt Q6B856+Q862L2+Q862F3)", ">", 40],
  ["C=C1Cc2cc(OC)c(OC)c(OC)c2-c2ccc(SC)c(=O)cc21", "Tubulin (Bos taurus, UniProt Q6B856+Q862L2+Q862F3)", "=", 2.4],
  ["COc1cc2c(c(OC)c1OC)-c1ccc(SC)c(=O)cc1[C@@H](COC(=O)c1ccc([N+](=O)[O-])cc1)C2", "Tubulin (Bos taurus, UniProt Q6B856+Q862L2+Q862F3)", "=", 6.6],
  ["COc1cc2c(c(OC)c1OC)-c1ccc(SC)c(=O)cc1[C@@H](COC(=O)c1cccc(F)c1)C2", "Tubulin (Bos taurus, UniProt Q6B856+Q862L2+Q862F3)", ">", 40],
  ["COc1cc2c(c(OC)c1OC)-c1ccc(SC)c(=O)cc1[C@@H](COC(=O)c1ccc(Br)cc1)C2", "Tubulin (Bos taurus, UniProt Q6B856+Q862L2+Q862F3)", ">", 40],
  ["CC(C)n1cnc2c(Nc3ccc(Br)cc3)nc(N3CCC[C@@H]3CO)nc21", "Tubulin (Bos taurus, UniProt Q6B856+Q862L2+Q862F3)", "=", 3.6],
  ["CCCC(=O)OC[C@H]1Cc2cc(OC)c(OC)c(OC)c2-c2ccc(SC)c(=O)cc21", "Tubulin (Bos taurus, UniProt Q6B856+Q862L2+Q862F3)", "=", 4.5],
  ["COc1cc2c(c(OC)c1OC)-c1ccc(SC)c(=O)cc1[C@@H](COC(=O)c1cccc([N+](=O)[O-])c1)C2", "Tubulin (Bos taurus, UniProt Q6B856+Q862L2+Q862F3)", ">", 40],
  ["COc1cc2c(c(OC)c1OC)-c1ccc(SC)c(=O)cc1[C@@H](COC(=O)c1ccccc1F)C2", "Tubulin (Bos taurus, UniProt Q6B856+Q862L2+Q862F3)", "=", 3],
  ["COc1cc2c(c(OC)c1OC)-c1ccc(SC)c(=O)cc1[C@@H](COC(=O)c1cccc(C#N)c1)C2", "Tubulin (Bos taurus, UniProt Q6B856+Q862L2+Q862F3)", ">", 40],
  ["COc1cc2c(c(OC)c1OC)-c1ccc(SC)c(=O)cc1[C@@H](COC(C)=O)C2", "Tubulin (Bos taurus, UniProt Q6B856+Q862L2+Q862F3)", "=", 3.4],
  ["CCOC(=O)OC[C@H]1Cc2cc(OC)c(OC)c(OC)c2-c2ccc(SC)c(=O)cc21", "Tubulin (Bos taurus, UniProt Q6B856+Q862L2+Q862F3)", "=", 3.7]
]}

---

system: KB; assay: Cytotoxicity against human solid tumor nasopharyngeal carcinoma KB cell line; format: functional; conditions: read-out: ED50 (the source's name)
Mark 1 for EC50 under 100 nM, -1 if at or over.

{"columns": ["smi", "class_assignment"],
 "data": [
  ["COc1cc2c(c(OC)c1OC)-c1ccc(SC)c(=O)cc1[C@@H](COC(=O)c1cccc(F)c1)C2", -1],
  ["COc1cc2c(c(OC)c1OC)-c1ccc(SC)c(=O)cc1[C@@H](COC(=O)c1ccc(F)cc1)C2", -1],
  ["COc1ccc(C(=O)OC[C@H]2Cc3cc(OC)c(OC)c(OC)c3-c3ccc(SC)c(=O)cc32)cc1", -1],
  ["COc1cc2c(c(OC)c1OC)-c1ccc(SC)c(=O)cc1[C@@H](COC(C)=O)C2", -1],
  ["COc1cc2c(c(OC)c1OC)-c1ccc(OC)c(=O)cc1[C@@H](NC(C)=O)CC2", 1],
  ["CCC(=O)OC[C@H]1Cc2cc(OC)c(OC)c(OC)c2-c2ccc(SC)c(=O)cc21", 1],
  ["COc1cc2c(c(OC)c1OC)-c1ccc(SC)c(=O)cc1[C@@H](COC(=O)c1ccc(Br)cc1)C2", 1],
  ["C=C1Cc2cc(OC)c(OC)c(OC)c2-c2ccc(SC)c(=O)cc21", -1],
  ["COc1cc2c(c(OC)c1OC)-c1ccc(SC)c(=O)cc1[C@@H](COC(=O)c1cccc(C#N)c1)C2", -1],
  ["CCCC(=O)OC[C@H]1Cc2cc(OC)c(OC)c(OC)c2-c2ccc(SC)c(=O)cc21", 1],
  ["COc1cc2c(c(OC)c1OC)-c1ccc(SC)c(=O)cc1[C@@H](COC(=O)c1ccccc1F)C2", -1]
]}

---

system: TE-671; experiment: Cytotoxicity against human central nervous system carcinoma TE671 cell line; type: functional; details: read-out: ED50 (the source's name)
Listed next: entries and their corresponding EC50.

{"columns": ["smi", "EC50 [nM]"],
 "data": [
  ["COc1ccc(C(=O)OC[C@H]2Cc3cc(OC)c(OC)c(OC)c3-c3ccc(SC)c(=O)cc32)cc1", 2],
  ["CCOC(=O)OC[C@H]1Cc2cc(OC)c(OC)c(OC)c2-c2ccc(SC)c(=O)cc21", 0.001],
  ["COc1cc2c(c(OC)c1OC)-c1ccc(SC)c(=O)cc1[C@@H](COC(=O)c1ccc(F)cc1)C2", 1250],
  ["COc1cc2c(c(OC)c1OC)-c1ccc(SC)c(=O)cc1[C@@H](COC(=O)c1cccc(C#N)c1)C2", 1530]
]}

---

system: RPMI-7951; test: cells; type: functional; conditions: Homo sapiens, read-out: ED50 (the source's name)
Description: Cytotoxicity against human melanoma RPMI-7951 cell line
pEC50: −log10 of the molar value.
quantity_name: pEC50

{"columns": ["smi", "quantity_name", "reported_measurement"],
 "data": [
  ["COc1cc2c(c(OC)c1OC)-c1ccc(SC)c(=O)cc1[C@@H](COC(=O)c1ccc(F)cc1)C2", "pEC50", 6.03],
  ["COc1cc2c(c(OC)c1OC)-c1ccc(SC)c(=O)cc1[C@@H](COC(=O)c1ccccc1F)C2", "pEC50", 7.40],
  ["C=C1Cc2cc(OC)c(OC)c(OC)c2-c2ccc(SC)c(=O)cc21", "pEC50", 10.08],
  ["COc1cc2c(c(OC)c1OC)-c1ccc(SC)c(=O)cc1[C@@H](COC(=O)c1cccc(F)c1)C2", "pEC50", 7.00],
  ["CCCC(=O)OC[C@H]1Cc2cc(OC)c(OC)c(OC)c2-c2ccc(SC)c(=O)cc21", "pEC50", 10.66],
  ["COc1cc2c(c(OC)c1OC)-c1ccc(SC)c(=O)cc1[C@@H](COC(=O)c1cccc(C#N)c1)C2", "pEC50", 6.20],
  ["CCOC(=O)OC[C@H]1Cc2cc(OC)c(OC)c(OC)c2-c2ccc(SC)c(=O)cc21", "pEC50", 12.00],
  ["COc1cc2c(c(OC)c1OC)-c1ccc(SC)c(=O)cc1[C@@H](COC(=O)c1cccc([N+](=O)[O-])c1)C2", "pEC50", 5.96],
  ["COc1cc2c(c(OC)c1OC)-c1ccc(SC)c(=O)cc1[C@@H](COC(C)=O)C2", "pEC50", 6.84],
  ["CC(C)n1cnc2c(Nc3ccc(Br)cc3)nc(N3CCC[C@@H]3CO)nc21", "pEC50", 6.87],
  ["CCC(=O)OC[C@H]1Cc2cc(OC)c(OC)c(OC)c2-c2ccc(SC)c(=O)cc21", "pEC50", 10.03],
  ["COc1cc2c(c(OC)c1OC)-c1ccc(OC)c(=O)cc1[C@@H](NC(C)=O)CC2", "pEC50", 9.00],
  ["COc1cc2c(c(OC)c1OC)-c1ccc(SC)c(=O)cc1[C@@H](COC(=O)c1ccc(Br)cc1)C2", "pEC50", 6.96],
  ["COc1ccc(C(=O)OC[C@H]2Cc3cc(OC)c(OC)c(OC)c3-c3ccc(SC)c(=O)cc32)cc1", "pEC50", 6.09],
  ["COc1cc2c(c(OC)c1OC)-c1ccc(SC)c(=O)cc1[C@@H](COC(=O)c1ccc([N+](=O)[O-])cc1)C2", "pEC50", 6.94]
]}
